target: UCHL1 (Homo sapiens); assay: Fluorescence-based Ub-Rho deubiquitinase activity assay; format: biochemical; parameters: made in house; settings: IC50 (µM), 3 h of preincubation with UCHL1; technical triplicate, averages
Where a SMILES comes first, the peptide text is derived from it. The star is where a group is joined. Cbz = O=C(OCc1ccccc1)*; CH2F = FC*
measuredParameter: IC50

What does the data say about its IC50? Entry: COC(=O)CC[C@H](NC(=O)[C@H](C)NC(=O)[C@@H](NC(=O)OCc1ccccc1)C(C)C)C(=O)CF [Cpd 1] (Cbz-Val-Ala-Glu(OMe)-CH2F)
24 µM

---

# pKi annotations
Molecular target: UCHL1 (Homo sapiens, UniProt P09936)
Sequence (P09936 1-223): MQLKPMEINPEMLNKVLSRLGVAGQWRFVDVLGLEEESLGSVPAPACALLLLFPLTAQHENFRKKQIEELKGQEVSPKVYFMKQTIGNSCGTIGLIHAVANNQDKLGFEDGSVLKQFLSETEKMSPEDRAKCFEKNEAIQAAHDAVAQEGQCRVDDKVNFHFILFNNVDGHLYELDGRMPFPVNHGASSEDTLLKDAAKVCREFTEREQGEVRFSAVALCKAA
Assay: Time-dependent inhibitor analysis (kinact/KI)
Format: biochemical
Set-up: made in house
Settings: reversible binding constant of covalent inhibition; read-out: KI
// pKi here means minus log10 of the molar concentration (mol/L)

>  <compound>
C#Cc1ccc(COC(=O)N[C@@H](Cc2ccccc2)C(=O)N[C@@H](C)C(=O)N[C@@H](CCC(=O)OC)C(=O)CF)cc1 [Cpd 36]

>  <value>
4.12

$$$$

Give recorded pKi with UCHL1 (Homo sapiens, UniProt P09936) for the following compound: C#Cc1ccc(COC(=O)N[C@H](C(=O)N[C@@H](C)C(=O)N[C@@H](CCC(=O)OC)C(=O)CF)C(C)C)cc1 [Cpd 34]
4.77

---

molecular target: UCHL1 (Homo sapiens); test: Fluorescence-based Ub-Rho deubiquitinase activity assay; format: biochemical; design: made in house; conditions: IC50, after approximately 112 min preincubation
Where a SMILES comes first, the peptide text is derived from it. The star is where a group is joined. Cbz = O=C(OCc1ccccc1)*; CH2F = FC*
measuredParameter: IC50

So what IC50 did COC(=O)CC[C@H](NC(=O)[C@H](C)NC(=O)[C@@H](NC(=O)OCc1ccccc1)C(C)C)C(=O)CF [Cpd 1] (Cbz-Val-Ala-Glu(OMe)-CH2F) get with UCHL1 (Homo sapiens)?
29 µM

---

Property: pIC50; scope: individual compounds
target: UCHL1 (Homo sapiens); assay: Fluorescence-based Ub-Rho deubiquitinase activity assay; assay type: biochemical; set-up: made in house; conditions: 3 h of preincubation with UCHL1; technical triplicate, averages; read-out: IC50
pIC50: −log10 of the molar value. Where a SMILES comes first, the peptide text is derived from it. The star is where a group is joined. Cbz = O=C(OCc1ccccc1)*; CH2F = FC*

Examples with their reported pIC50 follow.
>  <compound>
C#Cc1ccc(COC(=O)N[C@H](C(=O)N[C@@H](C)C(=O)N[C@@H](CCC(=O)OC)C(=O)CCl)C(C)C)cc1 [Cpd 37]

>  <systemTested>
UCHL1 (Homo sapiens)

>  <measuredParameter>
pIC50

>  <value>
< 3.70

$$$$
>  <compound>
COC(=O)CC[C@H](NC(=O)[C@H](C)NC(=O)[C@H](Cc1ccccc1)NC(=O)OCc1ccccc1)C(=O)CF [Cpd 21] (Cbz-Phe-Ala-Glu(OMe)-CH2F)

>  <systemTested>
UCHL1 (Homo sapiens)

>  <measuredParameter>
pIC50

>  <value>
4.89

$$$$

Can you share its pIC50? I mean this compound: COC(=O)CC[C@H](NC(=O)[C@H](C)NC(=O)[C@H](CC(=O)O)NC(=O)OCc1ccccc1)C(=O)CF [Cpd 25] (Cbz-Asp-Ala-Glu(OMe)-CH2F)
< 3.70
